B1: NLV3 TCR beta chain (CDR3β only) (parent)
chain: ASSPTGGSPSPLH

Variants of: B1
Experiment: T-Switch: Jurkat TCRβ−/− cells expressing a CDR3 saturation-mutagenesis library, stained with two peptide-HLA-A*02:01 tetramers (original and novel peptide) plus anti-CD3, FACS-sorted into four gates, gDNA sequenced
Condition Label: with both tetramers (double-negative gate, binds neither): HLA-A*02:01 with … and with …, tetramers 1 µg/mL, 30 min on ice, SP, DP and SW gates expanded about 10 days between rounds ('two to three rounds of selection' in the Methods), gate DN: OPPOSITE: higher = more of the variant in the gate that binds neither peptide = LESS binding (or no expression; inferred). Fold enrichment of the CDR3 variant in one FACS gate of a two-tetram, unresolved parent, parent is a CDR3 fragment, scale: fold enrichment, numbering: sequential-on-construct, sequence starts at 1
Quantity Kind: enrichment

> print(dat)
                                   mutant.id  quantity.kind  obs.value
 1  […] (CDR3 as printed); S2N derived by comparing it with the table's wild-type CDR3 ASSPTGGSPSPLH     enrichment      0.879
 2  […] (CDR3 as printed); P4N derived by comparing it with the table's wild-type CDR3 ASSPTGGSPSPLH     enrichment       1.17
 3  […] (CDR3 as printed); A1R derived by comparing it with the table's wild-type CDR3 ASSPTGGSPSPLH     enrichment       0.65
 4  […] (CDR3 as printed); S8W derived by comparing it with the table's wild-type CDR3 ASSPTGGSPSPLH     enrichment       0.85
 5  […] (CDR3 as printed); P11C derived by comparing it with the table's wild-type CDR3 ASSPTGGSPSPLH     enrichment      0.758
 6  […] (CDR3 as printed); L12K derived by comparing it with the table's wild-type CDR3 ASSPTGGSPSPLH     enrichment      0.756
 7  […] (CDR3 as printed); S10G derived by comparing it with the table's wild-type CDR3 ASSPTGGSPSPLH     enrichment       0.33
 8  […] (CDR3 as printed); S3I derived by comparing it with the table's wild-type CDR3 ASSPTGGSPSPLH     enrichment       1.21
 9  […] (CDR3 as printed); A1D derived by comparing it with the table's wild-type CDR3 ASSPTGGSPSPLH     enrichment      0.881
10  […] (CDR3 as printed); S8I derived by comparing it with the table's wild-type CDR3 ASSPTGGSPSPLH     enrichment       1.23
11  […] (CDR3 as printed); T5M derived by comparing it with the table's wild-type CDR3 ASSPTGGSPSPLH     enrichment      0.479
12  […] (CDR3 as printed); G6R derived by comparing it with the table's wild-type CDR3 ASSPTGGSPSPLH     enrichment      0.796
13  […] (CDR3 as printed); P4R derived by comparing it with the table's wild-type CDR3 ASSPTGGSPSPLH     enrichment      0.618
14  […] (CDR3 as printed); P9G derived by comparing it with the table's wild-type CDR3 ASSPTGGSPSPLH     enrichment       1.21
15  […] (CDR3 as printed); P11E derived by comparing it with the table's wild-type CDR3 ASSPTGGSPSPLH     enrichment      0.639
16  […] (CDR3 as printed); G7H derived by comparing it with the table's wild-type CDR3 ASSPTGGSPSPLH     enrichment      0.687
17  […] (CDR3 as printed); P9K derived by comparing it with the table's wild-type CDR3 ASSPTGGSPSPLH     enrichment      0.805
18  […] (CDR3 as printed); S3L derived by comparing it with the table's wild-type CDR3 ASSPTGGSPSPLH     enrichment      0.942
19  […] (CDR3 as printed); G7N derived by comparing it with the table's wild-type CDR3 ASSPTGGSPSPLH     enrichment       0.87
20  […] (CDR3 as printed); H13W derived by comparing it with the table's wild-type CDR3 ASSPTGGSPSPLH     enrichment      0.345
21  […] (CDR3 as printed); S8D derived by comparing it with the table's wild-type CDR3 ASSPTGGSPSPLH     enrichment      0.969
22  […] (CDR3 as printed); S3P derived by comparing it with the table's wild-type CDR3 ASSPTGGSPSPLH     enrichment       0.64
23  […] (CDR3 as printed); P4K derived by comparing it with the table's wild-type CDR3 ASSPTGGSPSPLH     enrichment      0.891
24  […] (CDR3 as printed); P11K derived by comparing it with the table's wild-type CDR3 ASSPTGGSPSPLH     enrichment      0.634
25  […] (CDR3 as printed); L12M derived by comparing it with the table's wild-type CDR3 ASSPTGGSPSPLH     enrichment      0.583
26  […] (CDR3 as printed); H13C derived by comparing it with the table's wild-type CDR3 ASSPTGGSPSPLH     enrichment      0.646
27  […] (CDR3 as printed); S8E derived by comparing it with the table's wild-type CDR3 ASSPTGGSPSPLH     enrichment       1.16
28  […] (CDR3 as printed); G7R derived by comparing it with the table's wild-type CDR3 ASSPTGGSPSPLH     enrichment       1.17
29  […] (CDR3 as printed); H13K derived by comparing it with the table's wild-type CDR3 ASSPTGGSPSPLH     enrichment      0.708
30  […] (CDR3 as printed); S8Y derived by comparing it with the table's wild-type CDR3 ASSPTGGSPSPLH     enrichment      0.351
31  […] (CDR3 as printed); S8Q derived by comparing it with the table's wild-type CDR3 ASSPTGGSPSPLH     enrichment      0.893
32  […] (CDR3 as printed); S10D derived by comparing it with the table's wild-type CDR3 ASSPTGGSPSPLH     enrichment      0.754
